tested on: MDR1-MDCK cells; experiment: MDR1-MDCK effective efflux assay (Transwell, 10 μM, 1 hour), MDR1-MDCK cells; format: in vitro ADME; details: MDCK-MDR1
experimental-endpoint: MDR1 ER

INSERT INTO assay_data (compound, experimental_endpoint, result) VALUES
  ('CC1c2nnc(C3CC4(C3)CN(c3ccc(F)cn3)C4)n2-c2ccc(Cl)cc2CN1C(=O)OC1CC(F)(F)C1 (stereo not drawn)', 'MDR1 ER', '+++'),
  ('CCC(=O)N1Cc2cc(Cl)ccc2-n2c(nnc2C2CC3(C2)CN(C(=O)C2CC2)C3)C1', 'MDR1 ER', '+'),
  ('O=C(C1COC1)N1Cc2cc(Cl)ccc2-n2c(nnc2C2CC3(C2)CN(c2ccc(F)cn2)C3)C1', 'MDR1 ER', '+'),
  ('CCC(=O)N1Cc2cc(Cl)ccc2-n2c(nnc2C2CC3(C2)CN(c2cnccn2)C3)C1', 'MDR1 ER', '+'),
  ('CN1Cc2cc(Cl)ccc2-n2c(nnc2C2CC3(C2)CN(c2cccc(F)n2)C3)C1', 'MDR1 ER', '+++'),
  ('CC(C)OC(=O)N1Cc2cc(Cl)ccc2-n2c(C3CC4(C3)CN(c3ccncn3)C4)nnc2C1C (stereo not drawn)', 'MDR1 ER', '++'),
  ('COC(=O)N1Cc2cc(Cl)ccc2-n2c(nnc2C2CC3(C2)CN(C(=O)C2CC2)C3)C1', 'MDR1 ER', '+'),
  ('CCC(=O)N1Cc2cc(Cl)ccc2-n2c(nnc2C2CC3(C2)CN(c2ncccn2)C3)C1', 'MDR1 ER', '+'),
  ('O=C(C1CC1)N1Cc2cc(Cl)ccc2-n2c(nnc2C2CC3(C2)CN(c2ccccn2)C3)C1', 'MDR1 ER', '+'),
  ('COC(=O)N1Cc2cc(Cl)ccc2-n2c(C3CC4(C3)CN(c3ncccn3)C4)nnc2C1C (stereo not drawn)', 'MDR1 ER', '+'),
  ('CC1c2nnc(C3CC4(C3)CN(c3cnccn3)C4)n2-c2ccc(Cl)cc2CN1C(=O)C1(F)CC1 (stereo not drawn)', 'MDR1 ER', '+'),
  ('CC1c2nnc(C3CC4(C3)CN(c3ccc(F)cn3)C4)n2-c2ccc(Cl)cc2CN1C(=O)OC(CF)CF (stereo not drawn)', 'MDR1 ER', '++'),
  ('Clc1ccc2c(c1)CN(C1COC1)Cc1nnc(C3CC4(C3)CN(c3ccccn3)C4)n1-2', 'MDR1 ER', '+'),
  ('COC(=O)N1Cc2cc(Cl)ccc2-n2c(C3CC4(C3)CN(c3ncc(F)cn3)C4)nnc2C1C (stereo not drawn)', 'MDR1 ER', '+'),
  ('CCC(=O)N1Cc2cc(Cl)ccc2-n2c(nnc2C2CC3(C2)CN(c2cccc(F)n2)C3)C1', 'MDR1 ER', '+'),
  ('CC1c2nnc(C3CC4(C3)CN(c3ccc(F)cn3)C4)n2-c2ccc(Cl)cc2CN1C(=O)C(F)F (stereo not drawn)', 'MDR1 ER', '+'),
  ('COC(=O)N1Cc2cc(Cl)ccc2-n2c(nnc2C2CC3(C2)CN(c2cccnn2)C3)C1', 'MDR1 ER', '+'),
  ('CC1c2nnc(C3CC4(C3)CN(c3ncc(F)cn3)C4)n2-c2ccc(Cl)cc2CN1C(=O)OC(CF)CF (stereo not drawn)', 'MDR1 ER', '+');

###

tested on: wild-type (WT) MDCK cells; test: MDR1-MDCK effective efflux assay (Transwell, 10 μM, 1 hour), wild-type MDCK cells; assay type: in vitro ADME; settings: MDCK
experimental-endpoint: WT ER

INSERT INTO results (molecule, result) VALUES
  ('O=C(C1CC1)N1Cc2cc(Cl)ccc2-n2c(nnc2C2CC3(C2)CN(c2ccccn2)C3)C1', '++++'),
  ('CCC(=O)N1Cc2cc(Cl)ccc2-n2c(nnc2C2CC3(C2)CN(c2cnccn2)C3)C1', '+'),
  ('COC(=O)N1Cc2cc(Cl)ccc2-n2c(nnc2C2CC3(C2)CN(c2ncc(F)cn2)C3)C1', '+++'),
  ('Clc1ccc2c(c1)CN(C1COC1)Cc1nnc(C3CC4(C3)CN(c3ccccn3)C4)n1-2', '+++'),
  ('O=C(C1CCC1)N1Cc2cc(Cl)ccc2-n2c(nnc2C2CC3(C2)CN(c2ccc(F)cn2)C3)C1', '+'),
  ('CC1c2nnc(C3CC4(C3)CN(c3ncc(F)cn3)C4)n2-c2ccc(Cl)cc2CN1C(=O)OC(CF)CF (stereo not drawn)', '++++'),
  ('COC(=O)N1Cc2cc(Cl)ccc2-n2c(C3CC4(C3)CN(c3ncc(F)cn3)C4)nnc2C1C (stereo not drawn)', '++++'),
  ('COC(=O)N1Cc2cc(Cl)ccc2-n2c(nnc2C2CC3(C2)CN(c2cccc(C)n2)C3)C1', '+++'),
  ('CC1c2nnc(C3CC4(C3)CN(c3ccc(F)cn3)C4)n2-c2ccc(Cl)cc2CN1C(=O)OC1CC(F)(F)C1 (stereo not drawn)', '+++'),
  ('CCC(=O)N1Cc2cc(Cl)ccc2-n2c(nnc2C2CC3(C2)CN(c2cccc(F)n2)C3)C1', '+++'),
  ('CC1c2nnc(C3CC4(C3)CN(c3cnccn3)C4)n2-c2ccc(Cl)cc2CN1C(=O)C1(F)CC1 (stereo not drawn)', '+++'),
  ('O=C(N1Cc2cc(Cl)ccc2-n2c(nnc2C2CC3(C2)CN(c2cnccn2)C3)C1)C1(F)CC1', '+++'),
  ('CCC(=O)N1Cc2cc(Cl)ccc2-n2c(nnc2C2CC3(C2)CN(c2ncccn2)C3)C1', '+'),
  ('CC(C)C(=O)N1Cc2cc(Cl)ccc2-n2c(nnc2C2CC3(C2)CN(c2ccccn2)C3)C1', '++++'),
  ('CC(C)OC(=O)N1Cc2cc(Cl)ccc2-n2c(C3CC4(C3)CN(c3ccncn3)C4)nnc2C1C (stereo not drawn)', '++++'),
  ('COC(=O)N1Cc2cc(Cl)ccc2-n2c(nnc2C2CC3(C2)CN(C(=O)C2CC2)C3)C1', '+'),
  ('CC(C)OC(=O)N1Cc2cc(Cl)ccc2-n2c(C3CC4(C3)CN(c3ccc(F)cn3)C4)nnc2C1C (stereo not drawn)', '++++'),
  ('CCC(=O)N1Cc2cc(Cl)ccc2-n2c(nnc2C2CC3(C2)CN(c2cccc(C#N)n2)C3)C1', '+++'),
  ('CCOC(=O)N1Cc2cc(Cl)ccc2-n2c(C3CC4(C3)CN(c3ncc(F)cn3)C4)nnc2C1C (stereo not drawn)', '++++'),
  ('CC(=O)N1Cc2cc(Cl)ccc2-n2c(nnc2C2CC3(C2)CN(c2cccc(C#N)n2)C3)C1', '+'),
  ('COC(=O)N1Cc2cc(Cl)ccc2-n2c(C3CC4(C3)CN(c3ccc(F)cn3)C4)nnc2C1C (stereo not drawn)', '++++');
